Data credit: ChEMBL document CHEMBL5308504

- tested on: Peregrin (Homo sapiens)
- conditions: Compound concentration 20.0 uM, Protein concentration 2.0 uM, Result type QC Liability
value type: ΔTm (°C)
Expressed in °C, but write only the number.

Query: ΔTm; subject: "CC(C)(C)OC(=O)CN(Cc1ccc(Cl)cc1)Cc1ccc([N+](=O)[O-])s1"
-0.13

Query: ΔTm; subject: "CC(=O)N1CCC(c2ccc(C(=O)NC3=NCCN3)cc2C(F)(F)F)CC1"
-1.55

Query: ΔTm; subject: "Cn1ncc(NC(=O)c2nc(-c3c(F)cccc3F)sc2N)c1N1CC[C@@H](N)[C@H](F)CC1"
-0.66

Query: ΔTm; subject: "N#CC[C@H](C1CCCC1)n1cc(-c2ncnc3[nH]ccc23)cn1"
0.48

Query: ΔTm; subject: "COc1c(NC(=O)c2cc3cccc(Oc4ccnc(C(=O)N5CCN(C)CC5)c4)c3n2C)cc(C(C)(C)C)cc1NS(C)(=O)=O"
-2.38

====

- tested on: Peregrin (Homo sapiens)
- conditions: Compound concentration 20.0 uM, Protein concentration 2.0 uM, Result type QC Liability
value type: ΔTm

Reference set (2 entries):
INSERT INTO results (smiles_record, tested_on, value_measured) VALUES
  ('Cc1cc(OC2CCS(=O)(=O)CC2)cc(C)c1-c1cccc(COc2ccc(CCC(=O)O)c(F)c2)c1', 'Peregrin (Homo sapiens)', '-4.37 °C'),
  ('CC(C)(C)c1cnc(CSc2cnc(NC(=O)C3CCNCC3)s2)o1', 'Peregrin (Homo sapiens)', '-1.47 °C');

# query: ΔTm | item "Cn1ccc(Cn2cnc(-c3ccc(F)cc3)c2-c2ccnc3[nH]ccc23)n1" | system: Peregrin (Homo sapiens)
-1.13 °C

# query: ΔTm | item "O=C(O)CCCc1cc2cc(Cl)ccc2n1S(=O)(=O)c1ccc2ncsc2c1" | system: Peregrin (Homo sapiens)
-1.78 °C

# query: ΔTm | item "Fc1cccc(-n2cnc3c(NCc4nc5c(F)c(F)ccc5[nH]4)nc(N4CCOCC4)nc32)c1" | system: Peregrin (Homo sapiens)
-0.08 °C

# query: ΔTm | item "CCCCCCCC/C=C\CCCCCCCC(=O)NCCO" | system: Peregrin (Homo sapiens)
-0.91 °C

# query: ΔTm | item "COc1cc2nc(C)nc(N[C@H](C)c3cc(N)cc(C(F)(F)F)c3)c2cc1O[C@H]1CCOC1" | system: Peregrin (Homo sapiens)
-3.07 °C

====

The following compounds are shown together with reported ΔTm values.
- tested on: Peregrin (Homo sapiens)
- conditions: Compound concentration 20.0 uM, Protein concentration 2.0 uM, Result type QC Liability
Remember to put the unit after the number in your answer.

Reference set (8 entries):
INSERT INTO assay_data (smiles_record, value_measured) VALUES
  ('C#Cc1cnc2[nH]cc(-c3cccc4c3CCN4C(=O)[C@@H]3CCCN3C#N)c2c1', '-12.9 °C'),
  ('C[C@@H](COCCC(=O)N1CCN(c2ncc(C(F)(F)F)cn2)CC1)Nc1cn[nH]c(=O)c1C(F)(F)F', '-0.15 °C'),
  ('Cc1nc(-c2ccc(C(F)(F)F)cc2)sc1C(=O)NCc1ccc(OC(C)(C)C(=O)O)cc1', '-1.41 °C'),
  ('CC(C)c1nc2c(c3c1[C@@H](c1ccc(C(F)(F)F)cc1)OC31CCOCC1)[C@@H](O)CC(C)(C)C2', '-3.83 °C'),
  ('CC1(C)CCN(C(=O)C2CN(c3c4c(nc5ccnn35)CCNCC4)C2)C1', '-2.26 °C'),
  ('Cc1n[nH]c2ncc(C(=O)N3CCC[C@H]3c3ccc(Cl)cc3)cc12', '-1.04 °C'),
  ('COc1ccc(Br)cc1S(=O)(=O)NC(=O)/C=C/c1cc(Cl)ccc1Cc1ccc2ccccc2c1', '-10.6 °C'),
  ('O=C(Nc1ccc(-n2nc(-c3cccnc3)cc2C(F)(F)F)cn1)c1ccc(-c2ccccc2)c(F)c1', '-2.22 °C');

Query: ΔTm; subject: "CN[C@@H](C)C(=O)N[C@H](C(=O)N1CCC[C@H]1C(=O)Nc1sc(-c2ncco2)nc1-c1ccccc1)C1CCCCC1"
-1.67 °C

====

- tested on: Fibroblast growth factor receptor 3 (Homo sapiens) (UniProt P22607)
- Sequence (P22607 23-806 limits assumed): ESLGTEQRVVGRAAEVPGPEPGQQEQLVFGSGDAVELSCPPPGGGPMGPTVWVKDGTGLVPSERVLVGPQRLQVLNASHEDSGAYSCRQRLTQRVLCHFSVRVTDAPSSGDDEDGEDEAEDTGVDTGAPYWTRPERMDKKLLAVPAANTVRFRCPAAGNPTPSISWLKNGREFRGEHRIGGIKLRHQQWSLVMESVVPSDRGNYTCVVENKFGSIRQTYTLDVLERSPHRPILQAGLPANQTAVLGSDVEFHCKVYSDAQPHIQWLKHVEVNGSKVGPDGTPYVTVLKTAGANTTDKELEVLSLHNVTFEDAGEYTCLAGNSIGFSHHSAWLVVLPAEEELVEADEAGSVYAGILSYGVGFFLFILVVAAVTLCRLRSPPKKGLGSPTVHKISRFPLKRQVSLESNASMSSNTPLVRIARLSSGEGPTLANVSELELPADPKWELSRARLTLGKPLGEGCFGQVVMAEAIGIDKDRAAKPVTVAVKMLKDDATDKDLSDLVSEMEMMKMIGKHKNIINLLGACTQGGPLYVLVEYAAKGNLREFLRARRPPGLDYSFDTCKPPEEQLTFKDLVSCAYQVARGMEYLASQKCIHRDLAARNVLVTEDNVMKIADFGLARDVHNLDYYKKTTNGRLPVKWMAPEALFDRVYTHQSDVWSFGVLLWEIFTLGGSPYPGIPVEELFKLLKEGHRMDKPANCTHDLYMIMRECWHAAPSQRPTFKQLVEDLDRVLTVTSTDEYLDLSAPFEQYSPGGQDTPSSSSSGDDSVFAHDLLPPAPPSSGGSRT
- conditions: Compound concentration 20.0 uM, Protein concentration 2.0 uM, Result type QC Liability
- Description: Thermal Shift Assay. Domain: start/stop: P449-E759
The following compounds are shown together with reported ΔTm values.
Expressed in °C, but write only the number.

INSERT INTO results (smiles_record, unit_abbreviation, value_measured) VALUES
  ('CC1CCN(C(=O)[C@@H](CCn2cccc2C#N)NS(=O)(=O)c2cccc3[nH]ccc23)CC1', '°C', 0.36),
  ('CCOC(=O)/N=C(\N)c1ccc(OCc2cccc(COc3ccc(C(C)(C)c4ccc(OC(=O)OCC)cc4)cc3)c2)cc1', '°C', 0.54),
  ('Clc1ccccc1C(c1ccccc1)(c1ccccc1)n1ccnc1', '°C', 0.47),
  ('O=C1NC(=NCc2cccs2)SC1=Cc1ccc2ncccc2c1', '°C', 0.61),
  ('C[C@@H](CO)CCC[C@@H](C)[C@H]1CC[C@H]2[C@@H]3CC=C4C[C@@H](O)CC[C@]4(C)[C@H]3CC[C@]12C', '°C', 0.9);

Query: ΔTm; subject: "C[C@@H]1COCCN1c1cc(=O)n2c(n1)N(Cc1cncc(Cl)c1)[C@H](C(F)(F)F)CC2"
0.57

Query: ΔTm; subject: "Cc1cc(=O)oc2cc(NC(=O)[C@H](Cc3ccc(I)cc3)NC(=O)[C@H]3N[C@@H]4CC[C@H]3C4)ccc12"
0.37

Query: ΔTm; subject: "CC(C)(C)OC(=O)CN(Cc1ccc(Cl)cc1)Cc1ccc([N+](=O)[O-])s1"
0.88

====

- tested on: UniProt P22607
- conditions: Compound concentration 20.0 uM, Protein concentration 2.0 uM, Result type QC Liability
Numbered stars: 1 amine (or outer) side, 2 acyl side, 3 side chain; on linkers, the order of the positions; unused ones are H or OH. Bridge positions count the residues as written; N and C are the ends. Square brackets hold non-standard residues; d marks the D form. Peptide text beside a SMILES is read from it. I, II: the chains in the order shown. Hexamethylenediamine = C(CCCN[*:2])CCN[*:1]; Dip = N[C@H](C(=O)O)C(c1ccccc1)c1ccccc1; Chg = N[C@H](C(=O)O)C1CCCCC1; NMeA = CN[C@@H](C)C(=O)O
The following compounds are shown together with reported ΔTm values.
Expressed in °C, but write only the number.

Reference set (5 entries):
INSERT INTO measurements (compound, value_measured) VALUES
  ('CCc1ccc(-c2ncn(CC3(F)CCN(C)CC3)c2-c2ccnc3[nH]ccc23)nc1', 0.58),
  ('CN[C@@H](C)C(=O)N[C@H](C(=O)N1CCC[C@H]1C(=O)N[C@H](C(=O)NCCCCCCNC(=O)[C@@H](NC(=O)[C@@H]1CCCN1C(=O)[C@@H](NC(=O)[C@H](C)NC)C1CCCCC1)C(c1ccccc1)c1ccccc1)C(c1ccccc1)c1ccccc1)C1CCCCC1 (I: H-[NMeA][Chg]P[Dip] / II: H-[NMeA][Chg]P[Dip]; linker I:C-II:C via Hexamethylenediamine)', 0.66),
  ('CC(C)(O)CNC(=O)N1C(=O)N(c2cccc(C(F)(F)F)c2)C2=C(C(=O)CC2)[C@@H]1c1ccc(C#N)cc1', 0.55),
  ('Cc1c(-c2c(F)cc(C(N)=O)c3[nH]c4c(c23)CC[C@H](C(C)(C)O)C4)cccc1-n1c(=O)c2cccc(F)c2n(C)c1=O', -3.27),
  ('Cn1ncc(-c2nc(N[C@H]3CC[C@H](N)CC3)ncc2Cl)c1CC1CC1', 1.76);

# query: ΔTm | item "CC1CCN(c2ccnc(NCc3cn(C)cn3)n2)CC1" | system: UniProt P22607
0.69

====

- tested on: Fibroblast growth factor receptor 3 (Homo sapiens) (UniProt P22607)
- conditions: Compound concentration 20.0 uM, Protein concentration 2.0 uM, Result type QC Liability
We label by threshold. Values of ΔTm strictly beneath 0.8 °C are Y. Values of 0.8 °C and up are N.

Is 0.8 °C strictly greater than the compound's reported ΔTm? compound: "CNC(=O)c1cc(C(=O)NC2CC2)cn(Cc2ccccc2)c1=O"
Y

Is 0.8 °C strictly greater than the compound's reported ΔTm? compound: "CNC(=O)c1c(F)cccc1Nc1nc(Nc2cc3c(cc2OC)CCN3C(=O)CN(C)C)nc2[nH]ccc12"
Y

Is 0.8 °C strictly greater than the compound's reported ΔTm? compound: "N=C(N)NCCC[C@H](NC(=O)CC1(CC(=O)N2CCN(C(c3ccccc3)c3ccccc3)CC2)CCCC1)C(=O)NCc1ccccc1"
Y

Is 0.8 °C strictly greater than the compound's reported ΔTm? compound: "CO[C@@H](C)CN1CC[C@]2(C)c3cc(O)ccc3C[C@H]1C2(C)C"
N

Is 0.8 °C strictly greater than the compound's reported ΔTm? compound: "C#Cc1cnc2[nH]cc(-c3cccc4c3CCN4C(=O)[C@@H]3CCCN3C#N)c2c1"
N
